assay: chemical genetic growth profiling, strain panel (AID 1159580);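 note: tested at 20 µM; growth read once vehicle control cultures reached saturation at 30 °C; 1 = growth at the plate median or of vehicle wells; lower values mean less growth of the strain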; details: S. cerevisiae deletion strains, growth OD, locus YGL227W, strain vid30, active compounds read low
The campaign covered roughly 5,500 compounds. About 2,000 (36%) were called active. Not shown: some 18% with an inconclusive outcome. The list shows a part of the results.
Recorded measurements of normalized growth, one per entry

>  <molecule>
N[C@@H](Cc1ccc(N(CCCl)CCCl)cc1)C(=O)O

>  <normalized growth>
0.995 (inactive)

$$$$
>  <molecule>
O=C(O)CCCc1ccccc1

>  <normalized growth>
0.977 (inactive)

$$$$
>  <molecule>
O=C(c1ccc(OCCN2CCCCC2)cc1)c1c(-c2ccc(O)cc2)sc2cc(O)ccc12

>  <normalized growth>
1.01 (inactive)

$$$$
>  <molecule>
O=C(/C=C/c1ccc(O)c(O)c1)OCCc1ccccc1

>  <normalized growth>
0.287 (active)

$$$$
>  <molecule>
O=C(/C=C/c1ccc(O)c(O)c1)OC(Cc1ccc(O)c(O)c1)C(=O)O (stereo unspecified)

>  <normalized growth>
1.02 (inactive)

$$$$
>  <molecule>
CCN(CC)C(=O)N1CCN(C)CC1

>  <normalized growth>
0.982 (inactive)

$$$$

Provenance of the data: PubChem BioAssay AID1159580
